Origin of the recorded values: patent US20230250157A1

Each item that follows carries a reported EC50.
Biological target: BM4831 RBD
Experiment: ELISA
measurement.name: EC50

{"binder": "M8a-28 (antibody, V domains shown) VH: QVQLQQPGAELVKPGASVKMSCKASGYNFNHYWISWVKQRPGQGLEWIGDIYPLSHFTTYNEKFTNRATLTVDTSSTTAYMQLNSLTSDDSAVFYCARWDYFDSRTFDYWGQGTTLTVSS VL: DILLTQFPAILSVSPGERVSFSCRASQTIGTNIHWYQQRINGSPRLLIKYASESISGIPSRFSGSGSGTDFSLSINNVESEDIADYYCQQINSWPLTFGAGTKLDLK", "measurement.name": "EC50", "result": "> 10 µg/mL"}
{"binder": "M8a-29 (antibody, V domains shown) VH: EVQLQQSVAELVRPGASVKLSCTASGFNIKNTYMHWVKQRPEQGLEWIGRIDPSIDHTRYAPKFQGKAVITAFTSSNTAYLQLSSLTSEDTAIYYCAREGGGNYPYYYAIDYWGQGTSVTVSS VL: DIVMTQAAFSNPVTLGTSASISCRSTKSLLHSNGITYLYWYLQKPGQSPQLLIYQMSNLASGVPDRFSSSGSGTDFTLRISRVEAEDVGVYYCAQNLELPYTFGGGTKLEIK", "measurement.name": "EC50", "result": "> 10 µg/mL"}
{"binder": "M8a-25 (antibody, V domains shown) VH: EVQLQQSVAELVRPGASVKLSCTASGFNIKNTYMHWVKQRPEQGLEWIGRIDPSIDHTRYAPKFQGKAVITAFTSSNTAYLQLSSLTSEDTAIYYCAREGGGNYPYYYAIDYWGQGTSVTVSS VL: DIQMTQSSSSFSVSLGDRVTITCKASEDIYIRLAWYQQRPGNAPRLLISNAISLETGVPSRFSGSGFGKDHTLSITSLQTEDVATYYCQQYWSTPWTFGGGTKLEIK", "measurement.name": "EC50", "result": "> 10 µg/mL"}
{"binder": "HSW-1 (antibody, V domains shown) VH: QVQLQQPGAELVKPGTSMKLSCKASGYTFTSYWMHWVKQRPGQGLEWIGMIHPNSGSTKYNENFKSKATLTVDKSSSTAYMQFSSLTSEDSAVYYCVRSGSYYGTTYDYFDYWGQGTTLTVSS VL: DIVLTQSPASLAVSLGQRATISCRASESVNIYGNSFMHWYQQKPGQPPKLLIFRASNLESGIPVRFSGSGSRTDFTLTINPVEADDVATYYCHQSNEDPFTFGSGTKLEIK", "measurement.name": "EC50", "result": "> 10 µg/mL"}
{"binder": "M8a-6 (antibody, V domains shown) VH: QVQLQQPGTELVMPGASVKLSCKTSGYTFTHYWMHWVKQRPGEGLEWIGEIAPSDNYVKYNQKFKGKSTLSVDRSSSTAYMQLSSLTSEDSAVYFCARPDNSGYPVYFDYWGQGTSLTVSS VL: DIVMTQSQKFMSTSLGDRVSISCKASQDVGTTVAWYQQKPGQSPKLLIYWASTRHTGVPDRFTGTGSGTDYTLTISSVAAEDLALYYCQQHYNTPYTFGGGTKLEIE", "measurement.name": "EC50", "result": "> 10 µg/mL"}
{"binder": "M8a-11 (antibody, V domains shown) VH: EVQLQQSGPELVKPGASVKIPCKASGYTFTDYNMDWVKQSHEKSLEWIGEIDPNNGDTIYNQKFKGKASLTVDKSSSTAYMELRSLTSEDTAVYYCAKRGYYGSSLWWYFDVWGTGTTVTVSS VL: DIQMTQSSSSFSVSLGDRVTITCKASEDIYIRLAWYQQRPGNAPRLLISNAISLETGVPSRFSGSGSGKDYTLSITSLQTEDVATYYCQQYWSTPWTFGGGTKLEIK", "measurement.name": "EC50", "result": "> 10 µg/mL"}
{"binder": "M8a-3 (antibody, V domains shown) VH: QVQLQQPGAELVLPGASVKLSCKASGYTFTNYWMHWVKQRPGHGLEWIGEIDPFDTYIKINQKFKGKSTLTVDTSSSTAYMQLSSLTSEDSAVYYCARPDSSGYPVYFDYWGQGTTLTVSS VL: DIVMTQSHKFMSTSVGDRVSITCKASQDVGTYIAWYQQKPGQSPKLLIYWASTRHTGVPDRFTGSGSGTNYTLTISSVQAEDLALYHCQQHYSTPYTFGGGTKLEIK", "measurement.name": "EC50", "result": "> 10 µg/mL"}
{"binder": "M8a-30 (antibody, V domains shown) VH: QVHLQQSGPELVKPGASVKISCKASGYGFSSSWMNWVKQRPGKGLEWIGRIYPGDGDTNYNDKFQGKATLTADRSSSTAYMHLTSLTSADSAVYFCARSLLYSFDYWGQGTTLTVSS VL: DVVVTQTPLSLPVSFGDQVSISCRSSQSLAGSYGHTYLSWYLHKSGQSPQLLIYGISNRFSGVPDRFSGSGSGTDFTLKISTIKPEDLGMYYCLQGTHQPLTFGAGTKLELK", "measurement.name": "EC50", "result": "> 10 µg/mL"}
{"binder": "M8a-15 (antibody, V domains shown) VH: QVQLQQSGPELARPGASVKLSCRASGYTVTSFGLSWMKQRTGQGLEWIGEIYPTSKNTYYNDKFRTKATLTADKSSSTAYMELRSLTSEDSAVYFCVLYDYFDYWGQGTTLTVSS VL: QIVLTQSPAIMSASPGEKVTISCSASSSVSYMYWYQQKTGSSPKPWIYRTSNLASGVPVRFSGSGSGTSYSLTISSMEAEDAATYYCQQYQSYPRTFGGGTKLEIK", "measurement.name": "EC50", "result": "> 10 µg/mL"}
